I'd be grateful if you could share measured protein stability index for these entries.
B1: CD69 (parent)
chain: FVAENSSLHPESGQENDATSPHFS

variants of: B1; assay: protein stability index of a GFP-peptide fusion (GPS, HEK-293T) (PSI 1-6); higher = more stable; settings: c terminus: a fixed tail appended;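 note: lentivirally expressed fusions sorted by FACS into six bins by GFP to DsRed ratio, PSI derived from sequencing read proportions per bin multiplied by bin number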
Answers are plain numbers.

Solved entries (count: 4):
>>> endpointresult("S12T")
3.14
>>> endpointresult("E4P")
3.51
>>> endpointresult("S12E")
3.83
>>> endpointresult("H9R")
2.79

Field: next variant
In: Quick check: protein stability index of "N5C" ?
Out: 2.5
